Data provenance: the Human Domainome abundance scans (Beltran et al. 2025)

Attribute: abundance fitness
B1: POU domain, class 4, transcription factor 1, residues 266 to 347; numbered along this chain, Q01851 (parent)
chain: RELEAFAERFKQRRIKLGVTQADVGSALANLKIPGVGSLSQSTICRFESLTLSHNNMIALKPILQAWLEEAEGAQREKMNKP

# Variants of: B1
# ASSAY: abundance fitness (aPCA) (normalised: wild type 0, dead -1); higher = more abundant; growth selection in yeast, the domain comes from the species named
# CONDITION SET: Homo sapiens
The answer should be a number; do not append a unit.

Query: abundance fitness; subject: `E2T`
-0.195

New cases:
Query: abundance fitness; subject: `E70F`
-0.198

Likewise for `R13F` ?
-0.203
